Test system: L. donovani (MHOM/IN/80/DD8) promastigotes
Experiment: In vitro promastigote susceptibility assay (resazurin)
Format: cell-based
Condition Label: Leishmania donovani; L. donovani promastigotes, 48 h at 26 °C, triplicate; N/A = not active at 100 μg/mL
# Lookup of reported IC50 keyed by entry
Please reply with the bare figure in µM and do not write the unit itself.

Below: 7 molecules and their reported IC50.
{"Molecule": "Cc1cccnc1-n1cccc1C(=O)c1ccc(Br)cc1 [5bf]", "Quantity Unit": "µM", "IC50": 19.9}
{"Molecule": "CCCCCCCCCCCCCCCCOP(=O)([O-])OCC[N+](C)(C)C [miltefosine, reference compound]", "Quantity Unit": "µM", "IC50": 0.24}
{"Molecule": "O=C(c1ccc2ccccc2c1)c1cccn1-c1ncccn1 [5an]", "Quantity Unit": "µM", "IC50": 58.5}
{"Molecule": "COc1cc(OC)cc(C(=O)c2cccn2-c2ncccc2C)c1 [5bj]", "Quantity Unit": "µM", "IC50": 43.5}
{"Molecule": "Cc1cccnc1-n1cccc1C(=O)c1ccc(C(C)(C)C)cc1 [5bc]", "Quantity Unit": "µM", "IC50": 221}
{"Molecule": "Cc1cccnc1-n1cccc1C(=O)c1ccc(Cl)cc1 [5be]", "Quantity Unit": "µM", "IC50": 20.7}
{"Molecule": "Cc1cccnc1-n1cccc1C(=O)c1cccc(OCc2ccccc2)c1 [5bp]", "Quantity Unit": "µM", "IC50": 184}

Problem: What does the data say about its IC50? Entry: O=C(c1ccc(C(F)(F)F)cc1)c1cccn1-c1ncccn1 [5ai]
Solution: 42.8

---

Experiment: Cytotoxicity assay on macrophages (resazurin)
Assay type: cell-based, BALB/c mice
Condition Label: mouse, J774 macrophages, macrophages J774, Table 3 (amastigote assay table); values marked e correspond to 100 μg/mL, the higher dose tested
# Lookup of reported CC50 at 24 h keyed by entry

Below: 2 compounds and their reported CC50 at 24 h.
{"Compound": "O=C(c1ccc(Br)cc1)c1cccn1-c1ncccn1 [5af]", "CC50 at 24 h": "> 305 µM"}
{"Compound": "Cc1cccnc1-n1cccc1C(=O)c1ccc(C(C)(C)C)cc1 [5bc]", "CC50 at 24 h": "> 314 µM"}

Now turn to the next compound.
Problem: What does the data say about its CC50 at 24 h? Entry: CCCCCCCCCCCCCCCCOP(=O)([O-])OCC[N+](C)(C)C [miltefosine, reference compound]
Solution: 136 µM

---

Experiment: Cytotoxicity assay on macrophages (resazurin)
Format: cell-based, BALB/c mice
Condition Label: mouse, J774 macrophages, macrophages J774, 24 h exposure, Table 2; values marked e correspond to 100 μg/mL, the higher dose tested
Procedure: The assay was carried out as previously described.[30] J774 macrophages cell lines were seeded (5 × 10^4 cells/well) in 96-well flat-bottom microplates with 100 μL of RPMI 1640 medium. The cells were allowed to attach for 24 h at 37 °C and 5% CO2, and the medium was replaced by different concentrations of the compounds in 200 μL of medium and exposed for another 24 h. […] The reduction of resazurin was determined by fluorometry as in the promastigote assay. […]
# Lookup of reported CC50 at 24 h keyed by entry
Please reply with the bare figure in µM and do not write the unit itself.

Below: 2 molecules and their reported CC50 at 24 h.
{"Chemical Structure": "O=C(c1ccc2ccccc2c1)c1cccn1-c1ncccn1", "CC50 at 24 h, µM": 113}
{"Chemical Structure": "COc1cc(C(=O)c2cccn2-c2ncccn2)cc(OC)c1OC", "CC50 at 24 h, µM": 87.3}

Problem: What does the data say about its CC50 at 24 h? Entry: COc1ccc(C(=O)c2cccn2-c2ncccn2)c(OC)c1
Solution: 224

Problem: What does the data say about its CC50 at 24 h? Entry: COc1cc(OC)cc(C(=O)c2cccn2-c2ncccn2)c1
Solution: 88.3

Problem: What does the data say about its CC50 at 24 h? Entry: O=C(c1ccc(F)cc1)c1cccn1-c1ncccn1
Solution: 270
